Target: LCAT (Homo sapiens)
Construct: The obtained fraction was dialyzed against phosphate-buffered saline (pH 7.4) and used as an enzyme source and an acceptor for LCAT
Sequence (P04180 25-440): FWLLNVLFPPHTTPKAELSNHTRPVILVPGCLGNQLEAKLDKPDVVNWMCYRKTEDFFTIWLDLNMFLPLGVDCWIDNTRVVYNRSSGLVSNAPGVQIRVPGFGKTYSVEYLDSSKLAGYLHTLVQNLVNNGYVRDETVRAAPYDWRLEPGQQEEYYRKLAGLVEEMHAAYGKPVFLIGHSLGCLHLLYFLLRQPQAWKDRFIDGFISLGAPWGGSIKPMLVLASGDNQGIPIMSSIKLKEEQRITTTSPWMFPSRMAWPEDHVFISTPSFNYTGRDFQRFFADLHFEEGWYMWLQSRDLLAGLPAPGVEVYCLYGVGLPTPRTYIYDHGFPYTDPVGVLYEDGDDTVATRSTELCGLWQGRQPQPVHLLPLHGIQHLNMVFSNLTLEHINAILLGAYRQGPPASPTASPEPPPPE
Assay: LCAT Activity Measurement (In Vitro)
Conditions: EC50 of LCAT activation; HDL3 fraction from plasma of a healthy person as enzyme source and acceptor; [14C]cholesterol; 37° C., approximately 16 hours
pEC50: −log10 of the molar value.
If the reported pEC50 equals or exceeds 7, assign fulfilled. If not, assign not fulfilled.

Compound	Answer Label
N#Cc1cccc(N2CCC(c3n[nH]c4c3C(O)(C(F)(F)F)CC(=O)N4)CC2)n1 (stereo not drawn)	not fulfilled
O=C1CC(O)(C(F)(F)F)c2c(C3CCN(c4nc(Cl)ccc4C(F)(F)F)CC3)n[nH]c2N1 (stereo not drawn)	not fulfilled
O=C1CC(O)(C(F)(F)F)c2c(C3CCN(c4ccc(C(F)(F)F)c(F)n4)CC3)n[nH]c2N1 (stereo not drawn)	fulfilled
O=C1CC(O)(C(F)(F)F)c2c(C3CCN(c4cc(I)c(C(F)(F)F)cn4)CC3)n[nH]c2N1 (single isomer, unassigned) [Compound 103-1]	fulfilled
O=C1CC(O)(C(F)(F)F)c2c(C3CCN(c4ccc(C(F)(F)F)nc4)CC3)n[nH]c2N1 (stereo not drawn)	fulfilled
Cc1cccc(N2CCC(c3n[nH]c4c3C(O)(C(F)(F)F)CC(=O)N4)CC2)n1 (stereo not drawn)	not fulfilled
O=C1CC(O)(C(F)(F)F)c2c(C3CCN(c4ccc(Cl)cn4)CC3)n[nH]c2N1 (single isomer, unassigned; (-)) [Compound 50-1]	fulfilled
O=C1CC(O)(C(F)(F)F)c2c(C3CCN(c4ccccc4)CC3)n[nH]c2N1 (stereo not drawn)	not fulfilled
CN(C)c1ncc(N2CCC(c3n[nH]c4c3C(O)(C(F)(F)F)CC(=O)N4)CC2)cn1 (stereo not drawn)	not fulfilled
O=C1CC(O)(C(F)(F)F)c2c(C3CCN(c4nc(C5CC5)no4)CC3)n[nH]c2N1 (stereo not drawn)	not fulfilled
CN(C)C(=O)c1cc(N2CCC(c3n[nH]c4c3C(O)(C(F)(F)F)CC(=O)N4)CC2)ncc1C(F)(F)F (stereo not drawn)	not fulfilled
O=C1CC(O)(C(F)(F)F)c2c(C3CCN(c4cc(I)c(C(F)(F)F)cn4)CC3)n[nH]c2N1 (single isomer, unassigned) [Compound 103-2]	not fulfilled
N#Cc1cnc(N2CCC(c3n[nH]c4c3C(O)(C(F)(F)F)CC(=O)N4)CC2)cc1C(F)(F)F (stereo not drawn)	fulfilled
O=C1CC(O)(C(F)(F)F)c2c(C3CCN(c4cccc(C(F)(F)F)n4)CC3)n[nH]c2N1 (stereo not drawn)	fulfilled
O=C1CC(O)(C(F)(F)F)c2c(C3CCN(c4nc(C(F)(F)F)c(-c5nc(C(F)(F)F)cs5)s4)CC3)n[nH]c2N1 (stereo not drawn)	fulfilled

* * *

Target: LCAT (Homo sapiens, UniProt P04180)
Construct: The obtained fraction was dialyzed against phosphate-buffered saline (pH 7.4) and used as an enzyme source and an acceptor for LCAT
Assay: LCAT Activity Measurement (In Vitro)
Conditions: EC50 of LCAT activation; HDL3 fraction from plasma of a healthy person as enzyme source and acceptor; [14C]cholesterol; 37° C., approximately 16 hours
Property Name: EC50 (µM)

Compound	Measured Result
O=C1CC(O)(C(F)(F)F)c2c(C3CCN(c4ccc(C(F)(F)F)nn4)CC3)n[nH]c2N1 (centres unmarked)	0.056
CN(C)c1ccc(N2CCC(c3n[nH]c4c3C(O)(C(F)(F)F)CC(=O)N4)CC2)cn1 (centres unmarked)	0.76
CC(C)Oc1ccc(N2CCC(c3n[nH]c4c3C(O)(C(F)(F)F)CC(=O)N4)CC2)nn1 (centres unmarked) [Example 17]	0.064
O=C1CC(O)(C(F)(F)F)c2c(C3CCN(c4cccnc4)CC3)n[nH]c2N1 (centres unmarked)	2.41
COc1cccc(N2CCC(c3n[nH]c4c3C(O)(C(F)(F)F)CC(=O)N4)CC2)n1 (centres unmarked)	0.054
Cc1nc(N2CCC(c3n[nH]c4c3C(O)(C(F)(F)F)CC(=O)N4)CC2)ccc1C#N (centres unmarked)	0.29
N#Cc1cnc(N2CCC(c3n[nH]c4c3C(O)(C(F)(F)F)CC(=O)N4)CC2)cn1 (centres unmarked)	0.22
O=C1CC(O)(C(F)(F)F)c2c(C3CCN(c4ccc(Cl)cn4)CC3)n[nH]c2N1 (centres unmarked) [Example 14]	0.086
COc1ccnc(N2CCC(c3n[nH]c4c3C(O)(C(F)(F)F)CC(=O)N4)CC2)c1 (centres unmarked)	0.33
O=C1CC(O)(C(F)(F)F)c2c(C3CCN(c4ccc(C(F)(F)F)cn4)CC3)n[nH]c2N1 (single isomer, unassigned; (-)) [Compound 49-1]	0.018
CCOc1ccc(N2CCC(c3n[nH]c4c3C(O)(C(F)(F)F)CC(=O)N4)CC2)cc1 (centres unmarked)	0.26

* * *

Target: LCAT (Homo sapiens, UniProt P04180)
Construct: The obtained fraction was dialyzed against phosphate-buffered saline (pH 7.4) and used as an enzyme source and an acceptor for LCAT
Sequence (P04180 25-440): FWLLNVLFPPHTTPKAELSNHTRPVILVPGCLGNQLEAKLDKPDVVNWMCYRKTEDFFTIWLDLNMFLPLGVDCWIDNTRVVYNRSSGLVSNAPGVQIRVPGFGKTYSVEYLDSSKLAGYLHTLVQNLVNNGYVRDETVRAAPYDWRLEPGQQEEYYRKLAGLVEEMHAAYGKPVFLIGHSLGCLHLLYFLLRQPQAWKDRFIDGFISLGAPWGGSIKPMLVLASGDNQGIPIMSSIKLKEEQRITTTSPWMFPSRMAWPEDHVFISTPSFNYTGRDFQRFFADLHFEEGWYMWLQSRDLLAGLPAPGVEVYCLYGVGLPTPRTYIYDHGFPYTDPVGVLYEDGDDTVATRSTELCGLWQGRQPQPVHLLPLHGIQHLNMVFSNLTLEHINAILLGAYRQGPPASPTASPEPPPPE
Test: LCAT Activity Measurement (In Vitro)
Conditions: EC50 of LCAT activation; HDL3 fraction from plasma of a healthy person as enzyme source and acceptor; [14C]cholesterol; 37° C., approximately 16 hours
Parameter: EC50. Scope: all listed entries.

Molecule	EC50 [nM]
N#Cc1cccnc1N1CCC(c2n[nH]c3c2C(O)(C(F)(F)F)CC(=O)N3)CC1 (centres unmarked)	1550
CN(C)C(=O)c1cc(N2CCC(c3n[nH]c4c3C(O)(C(F)(F)F)CC(=O)N4)CC2)ccc1C(F)(F)F (centres unmarked)	190
O=C1CC(O)(C(F)(F)F)c2c(C3CCN(c4cc(C(F)(F)F)ccn4)CC3)n[nH]c2N1 (centres unmarked)	56
O=C1CC(O)(C(F)(F)F)c2c(C3CCN(c4cnc(C(F)(F)F)cn4)CC3)n[nH]c2N1 (centres unmarked)	12
O=C1CC(O)(C(F)(F)F)c2c(C3CCN(c4ccc5ccccc5n4)CC3)n[nH]c2N1 (centres unmarked)	96

* * *

Molecular target: LCAT (Homo sapiens)
Construct: The obtained fraction was dialyzed against phosphate-buffered saline (pH 7.4) and used as an enzyme source and an acceptor for LCAT
Assay: LCAT Activity Measurement (In Vitro)
Conditions: EC50 of LCAT activation; HDL3 fraction from plasma of a healthy person as enzyme source and acceptor; [14C]cholesterol; 37° C., approximately 16 hours
Reported values of EC50 for individual entries
Property Name: EC50 (nM)

Compound	Measured Result
O=C1CC(O)(C(F)(F)F)c2c(C3CCN(c4cc(I)c(C(F)(F)F)cn4)CC3)n[nH]c2N1 (centres unmarked) [Example 102]	21
O=C1CC(O)(C(F)(F)F)c2c(C3CCN(c4nc5ccccc5s4)CC3)n[nH]c2N1 (centres unmarked)	200
N#Cc1cccc(N2CCC(c3n[nH]c4c3C(O)(C(F)(F)F)CC(=O)N4)CC2)c1 (centres unmarked)	120
O=C1CC(O)(C(F)(F)F)c2c(C3CCN(c4ncc(C(F)(F)F)cn4)CC3)n[nH]c2N1 (centres unmarked)	360
CN(C)c1cc(N2CCC(c3n[nH]c4c3C(O)(C(F)(F)F)CC(=O)N4)CC2)nc(C(F)(F)F)n1 (centres unmarked)	140
CC(C)Oc1ccc(N2CCC(c3n[nH]c4c3C(O)(C(F)(F)F)CC(=O)N4)CC2)nc1 (centres unmarked)	67
O=C1CC(O)(C(F)(F)F)c2c(C3CCN(c4ccc(C(F)(F)F)cn4)CC3)n[nH]c2N1 (centres unmarked) [Example 8]	21
CC(C)c1ccc(N2CCC(c3n[nH]c4c3C(O)(C(F)(F)F)CC(=O)N4)CC2)nc1 (centres unmarked)	56
O=C1CC(O)(C(F)(F)F)c2c(C3CCN(c4ccc(F)cc4)CC3)n[nH]c2N1 (centres unmarked)	300
O=C1CC(O)(C(F)(F)F)c2c(C3CCN(c4nccc(C(F)(F)F)n4)CC3)n[nH]c2N1 (centres unmarked)	380
O=C1CC(O)(C(F)(F)F)c2c(C3CCN(c4ncc(C(F)(F)F)cc4Cl)CC3)n[nH]c2N1 (centres unmarked)	210
